Test system: BT-549
Assay: NCI tumour cell line growth inhibition, 48 h
Active and inactive are the calls of the source. Rule as the data show it: active = GI50 up to about 1.1 µM and inactive = higher.
GI50 reference
measurement kind: GI50

molecule	measurement kind	measured
C=CCOc1ccccc1/N=N/C(C#N)=N\Nc1ccccc1OCC=C	GI50	> 100 µM (inactive)
COc1nc(-c2c[nH]c3ccccc23)cnc1N	GI50	33.7 µM (inactive)
Cc1nnc(N)nc1/C=C\c1cccs1	GI50	42.9 µM (inactive)
CCOC(=O)NC(Nc1ccc(F)cc1F)(C(F)(F)F)C(F)(F)F	GI50	> 100 µM (inactive)
CC(C)(C)OC(=O)C1CCC/C1=N/Nc1ccc([N+](=O)[O-])cc1[N+](=O)[O-] (stereo not given)	GI50	24.9 µM (inactive)
CSCCC(NC(=O)Cc1ccc(C(=O)c2ccccc2)cc1)C(=O)N1CCN(CCCCN2c3ccccc3Sc3cc(N=[N+]=[N-])ccc32)CC1 (stereo not given)	GI50	> 100 µM (inactive)
CCN(CC)C(=S)SNc1ccc(S(N)(=O)=O)cc1	GI50	67.8 µM (inactive)
Cc1cccc(N2C(=O)C3ON(C(C(N)=O)c4ccccc4)C(c4c5ccccc5c(Cl)c5ccccc45)C3C2=O)c1C (stereo not given)	GI50	9.98 µM (inactive)
Cc1ccc(S(=O)(=O)N2CCCCN(S(=O)(=O)c3ccc(C)cc3)Cc3ccccc3OCCOCCOc3c4cccc3Cc3cccc5c3OCCOCCOc3ccccc3CN(S(=O)(=O)c3ccc(C)cc3)CCCN(S(=O)(=O)c3ccc(C)cc3)Cc3ccccc3OCCOCCOc3c(cccc3C4)Cc3cccc(c3OCCOCCOc3ccccc3C2)C5)cc1	GI50	> 100 µM (inactive)
Nc1ncnc2c1ccn2C/C=C\CO	GI50	> 100 µM (inactive)
O=c1[nH]nc(Cc2ccccc2)n1/N=C/c1c(O)ccc2ccccc12	GI50	82.4 µM (inactive)
OC(c1cc(-c2ccccc2)nc2c1ccc1ccccc12)C1CCCCN1 (stereo not given)	GI50	3.97 µM (inactive)
CC(=O)CC(=O)N1CCSC1=S	GI50	> 10 µM (inactive)
COc1ccc(NC(=O)/C(=N/NC(N)=S)C2C(=O)NC(=S)NC2=O)c(OC)c1	GI50	> 100 µM (inactive)
N#C/C(C(=O)CCl)=C1\Nc2ccccc2O1	GI50	2.17 µM (inactive)
COc1cc(OC)c(OC)cc1/C=C/c1cnnc2ccccc12	GI50	> 10 µM (inactive)
Nc1nc(Sc2ccc([N+](=O)[O-])c3nonc23)c2nc[nH]c2n1	GI50	2.07 µM (inactive)
O=C1c2ccccc2C(=O)[C@@]23O[C@@]12C1(Oc2cccc4cccc(c24)O1)[C@@H]1O[C@@H]1[C@@H]3O	GI50	2.9 µM (inactive)
N#Cc1ccc(-c2nc3c(N)ncnc3o2)cc1	GI50	> 100 µM (inactive)
Cn1nc2ccc([N+](=O)[O-])c(Cn3nnc4ccccc43)c2n1	GI50	> 100 µM (inactive)

----------
System: NCI-H23
Test: NCI tumour cell line growth inhibition, 48 h
The source made the active and inactive calls. No stated cut-off is given here; in the data, active = GI50 up to about 1.1 µM and inactive = higher.
measurement kind: GI50

                                    compound  measurement_kind             measured
 0  C=C1CC2CC(=O)C(O)C(C1)C2 (stereo unspecified)              GI50   90.8 µM (inactive)
 1        O=NN(CCCl)C(=O)NCc1ccc[n+]([O-])c1              GI50  > 100 µM (inactive)
 2  O=Cc1cc(O)c(O)c(O)c1-c1c(C=O)cc(O)c(O)c1O              GI50  > 100 µM (inactive)
 3                 Nc1c2c(nc3ccccc13)CCCCCC2              GI50   42.1 µM (inactive)
 4  CC1CCCc2c(C#N)c(N)nc(-c3ccc(Cl)cc3)c21 (stereo unspecified)              GI50   16.8 µM (inactive)
 5  COc1ccc(NC(=O)/C(=N/NC(N)=S)C2C(=O)NC(=S)NC2=O)c(OC)c1              GI50  > 100 µM (inactive)
 6    C=CCN1C(=O)C=C(c2ccccc2)n2ncc3cccc1c32              GI50  > 100 µM (inactive)
 7  CC(C)(C)[Si](C)(C)OCCc1ccccc1C1CC2(S(=O)(=O)c3ccccc3)ON1CC2S(=O)(=O)c1ccccc1 (stereo unspecified)              GI50  > 100 µM (inactive)
 8  Cc1ccc(Cc2cc(N3CCN(c4cccc(Cl)c4)CC3)nnc2C)cc1              GI50   37.7 µM (inactive)
 9          CN(C)/C=N/[C@@H](C(=O)O)c1ccccc1              GI50  > 100 µM (inactive)
10  NS(=O)(=O)c1ccc(NC(=O)COC(=O)c2cccc3c(=O)c4ccccc4[nH]c23)cc1              GI50   21.4 µM (inactive)

Reference source: ChEMBL document CHEMBL1201862
